experiment: Aqueous solubility of the compound at pH 4.7; type: physicochemical; settings: aqueous solution
assay metric: solubility (mg/mL)
Give the value in mg/mL but do not write mg/mL after it.

Query: Consider the compound shown here: N=C(N)c1ccc(CNC(=O)[C@@H]2CCCN2C(=O)[C@@H](NCC(=O)O)C(c2ccccc2)c2ccccc2)s1 What is its recorded solubility?
Response: 15

* * *

assay: Aqueous solubility of the compound at pH 6.3; assay type: physicochemical; conditions: aqueous solution
assay metric: solubility (µg/mL)
Give the value in µg/mL but do not write µg/mL after it.

Query: Consider the compound shown here: CCCCCCOC(=O)NC(=N)c1ccc(NCc2nc3cc(C(=O)N(CCC(=O)OCC)c4ccccn4)ccc3n2C)cc1 [DABIGATRAN ETEXILATE] What is its recorded solubility?
Response: 2.3

* * *

experiment: Plasma protein binding in human at 1 ug/ml by ultra-filtration method; format: ADME, cell-free; settings: read-out: PPB (converted)
Could you please report measured fraction unbound at 1 ug/ml for the items listed next?
Simply state the number, no unit and no words.

Query: Consider the compound shown here: N=C(N)c1ccc(CNC(=O)[C@@H]2CCN2C(=O)[C@H](NCC(=O)O)C2CCCCC2)cc1 What is its recorded fraction unbound at 1 ug/ml?
Response: 0.847

Query: Consider the compound shown here: N=C(N)c1ccc(CNC(=O)[C@@H]2CCCN2C(=O)[C@@H](NCC(=O)O)C(c2ccccc2)c2ccccc2)s1 What is its recorded fraction unbound at 1 ug/ml?
Response: 0.485
